- TESTED_ON: NO-Synthase (iNOS) (Mus musculus, UniProt P29477)
- Construct: wird die Neusynthese des NO-produzierenden Enzyms NO-Synthase (iNOS) induziert; endogenous in cells
- EXPERIMENT_SUMMARY: NO measurement by oxyhaemoglobin on macrophages (inhibition of NO release, LPS/γIFN-stimulated)
- PARTICULARS: Mäusemakrophagen RAW 264.7, stimulated with LPS + γIFN for 4 h, 120 min incubation with test substance; read-out: IC₅₀-Wert
PROPERTY_NAME: pIC50
For clarity, pIC50 is expressed as the negative log10 of concentration in mol/L.

Indicate the recorded pIC50 value for this compound: NC1=NCCCS1
5.89
